# measured_target: Sodium-dependent dopamine transporter (Homo sapiens, UniProt Q01959)
# Sequence (Q01959 whole entry): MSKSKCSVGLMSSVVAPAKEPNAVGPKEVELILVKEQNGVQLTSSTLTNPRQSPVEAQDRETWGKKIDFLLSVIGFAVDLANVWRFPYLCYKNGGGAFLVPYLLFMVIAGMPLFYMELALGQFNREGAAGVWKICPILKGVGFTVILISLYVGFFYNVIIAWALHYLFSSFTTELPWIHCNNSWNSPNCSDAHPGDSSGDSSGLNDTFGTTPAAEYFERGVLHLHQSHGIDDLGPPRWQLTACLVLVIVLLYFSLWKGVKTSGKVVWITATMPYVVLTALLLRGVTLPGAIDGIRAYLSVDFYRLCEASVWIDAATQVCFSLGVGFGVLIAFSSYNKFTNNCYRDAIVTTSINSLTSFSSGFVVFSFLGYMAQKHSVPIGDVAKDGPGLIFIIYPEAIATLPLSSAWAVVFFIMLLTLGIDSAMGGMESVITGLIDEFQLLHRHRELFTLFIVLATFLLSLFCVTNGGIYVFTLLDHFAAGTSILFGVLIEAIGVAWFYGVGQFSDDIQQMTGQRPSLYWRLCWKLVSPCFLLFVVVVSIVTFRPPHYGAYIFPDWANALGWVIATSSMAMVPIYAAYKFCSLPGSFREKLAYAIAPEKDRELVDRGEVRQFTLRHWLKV
Ki listing for selected compounds.

COc1ccccc1O[C@@H](c1ccccc1)[C@@H]1CNCCO1 :: > 10 µM
COC(=O)c1ccccc1O[C@@H](c1ccccc1)[C@@H]1CNCCO1 :: > 3 µM

# `FCCCOc1ccccc1S[C@@H](c1ccccc1)[C@@H]1CNCCO1` with Sodium-dependent dopamine transporter (Homo sapiens, UniProt Q01959): Ki is > 9 µM

# `CSc1ccccc1O[C@@H](c1ccccc1)[C@@H]1CNCCO1` with Sodium-dependent dopamine transporter (Homo sapiens, UniProt Q01959): Ki is > 6 µM

====

pKi: −log10 of the molar value.
Record type: pKi measurement. Applies to: Sodium-dependent serotonin transporter (Homo sapiens)
measured_parameter: pKi

COC(=O)c1ccccc1S[C@@H](c1ccccc1)[C@@H]1CNCCO1 :: 6.30
COc1ccccc1O[C@@H](c1ccccc1)[C@@H]1CNCCO1 :: 6.73
FCCOc1ccccc1S[C@@H](c1ccccc1)[C@@H]1CNCCO1 :: 6.13

====

# Species: Homo sapiens
# experimental_details: Selectivity ratio of Ki for human SERT to Ki for human NET
measured_parameter: Ratio Ki

COc1ccccc1O[C@@H](c1ccccc1)[C@@H]1CNCCO1 :: 195
CSc1ccccc1O[C@@H](c1ccccc1)[C@@H]1CNCCO1 :: 44
FCCOc1ccccc1S[C@@H](c1ccccc1)[C@@H]1CNCCO1 :: 733
FCCCOc1ccccc1S[C@@H](c1ccccc1)[C@@H]1CNCCO1 :: 100
COC(=O)c1ccccc1O[C@@H](c1ccccc1)[C@@H]1CNCCO1 :: 465

P: COc1ccccc1S[C@@H](c1ccccc1)[C@@H]1CNCCO1
Q: COC(=O)c1ccccc1S[C@@H](c1ccccc1)[C@@H]1CNCCO1
QUERY: Pick one, P or Q : lowest reported Ratio Ki. Lab note: record the label of whichever item you select.
RESULT: P

====

# measured_target: Sodium-dependent noradrenaline transporter (Homo sapiens, UniProt P23975)
# Sequence (P23975 whole entry): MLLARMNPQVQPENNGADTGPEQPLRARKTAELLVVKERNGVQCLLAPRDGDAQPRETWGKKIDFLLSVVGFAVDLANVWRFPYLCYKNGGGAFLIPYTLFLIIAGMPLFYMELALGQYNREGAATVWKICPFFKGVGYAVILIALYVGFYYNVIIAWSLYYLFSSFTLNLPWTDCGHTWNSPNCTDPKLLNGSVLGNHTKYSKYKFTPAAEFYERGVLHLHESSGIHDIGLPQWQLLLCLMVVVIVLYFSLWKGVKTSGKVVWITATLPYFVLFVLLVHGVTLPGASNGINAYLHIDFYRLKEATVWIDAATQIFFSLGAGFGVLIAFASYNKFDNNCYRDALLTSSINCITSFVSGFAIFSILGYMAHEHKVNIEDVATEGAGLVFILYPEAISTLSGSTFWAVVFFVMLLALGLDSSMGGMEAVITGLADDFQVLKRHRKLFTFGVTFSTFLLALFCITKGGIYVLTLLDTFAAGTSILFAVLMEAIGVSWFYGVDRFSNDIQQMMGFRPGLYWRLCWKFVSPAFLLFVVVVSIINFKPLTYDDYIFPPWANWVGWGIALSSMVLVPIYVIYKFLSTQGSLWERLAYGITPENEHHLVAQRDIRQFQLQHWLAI
# experimental_details: Displacement of [3H]nisoxetine from human NET expressed in HEK293 cells
# Format: cell-based
pKi: −log10 of the molar value.
measured_parameter: pKi

COC(=O)c1ccccc1S[C@@H](c1ccccc1)[C@@H]1CNCCO1 :: 8.87
COc1ccccc1O[C@@H](c1ccccc1)[C@@H]1CNCCO1 :: 9.02
FCCCOc1ccccc1S[C@@H](c1ccccc1)[C@@H]1CNCCO1 :: 8.92
FCCOc1ccccc1S[C@@H](c1ccccc1)[C@@H]1CNCCO1 :: 9.00

====

Ratio Ki listing for selected molecules.
# Species: Homo sapiens
# experimental_details: Selectivity ratio of Ki for human DAT to Ki for human NET

Record excerpt, results attached:
COC(=O)c1ccccc1S[C@@H](c1ccccc1)[C@@H]1CNCCO1 :: > 20000
COc1ccccc1O[C@@H](c1ccccc1)[C@@H]1CNCCO1 :: > 10000
COc1ccccc1S[C@@H](c1ccccc1)[C@@H]1CNCCO1 :: > 4000

Memo: `FCCCOc1ccccc1S[C@@H](c1ccccc1)[C@@H]1CNCCO1` , reported Ratio Ki: > 7000

Memo: `COC(=O)c1ccccc1O[C@@H](c1ccccc1)[C@@H]1CNCCO1` , reported Ratio Ki: > 2000

Memo: `FCCOc1ccccc1S[C@@H](c1ccccc1)[C@@H]1CNCCO1` , reported Ratio Ki: > 10000

Memo: `CSc1ccccc1O[C@@H](c1ccccc1)[C@@H]1CNCCO1` , reported Ratio Ki: > 3000
